target: cp1284; experiment: BLI
parameter: pKd
Scale: negative log10 of molar concentration, which is what pKd denotes.

Just so you know, measured pKd for cp203 (Fc fusion, biotinylated for BLI capture (site not stated)) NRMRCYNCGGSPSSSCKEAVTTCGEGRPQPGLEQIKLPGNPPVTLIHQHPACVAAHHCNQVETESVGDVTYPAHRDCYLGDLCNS came out at 7.39
